Catalogue of Enzyme degradation CDK9 (% remaining) @ 0.1 μM values
Biological target: CDK9 (Homo sapiens, UniProt P50750)
Construct: endogenous in cells; host or cells: MDA-MB-231
Sequence (P50750 whole entry): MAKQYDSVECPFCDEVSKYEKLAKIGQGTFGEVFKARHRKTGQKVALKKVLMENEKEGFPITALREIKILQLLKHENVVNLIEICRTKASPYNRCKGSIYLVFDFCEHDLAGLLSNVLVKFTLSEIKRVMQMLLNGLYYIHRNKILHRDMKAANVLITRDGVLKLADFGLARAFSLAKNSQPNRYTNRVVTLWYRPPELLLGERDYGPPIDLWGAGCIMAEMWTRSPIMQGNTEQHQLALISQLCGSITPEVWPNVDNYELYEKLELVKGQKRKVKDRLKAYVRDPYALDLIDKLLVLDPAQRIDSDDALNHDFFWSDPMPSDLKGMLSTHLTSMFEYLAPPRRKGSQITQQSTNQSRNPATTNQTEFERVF
Assay: CDK protein degradation activity (Western blotting), CDK9
Type: cell-based
Details: MDA-MB-231 cells, 0.1 μM, 16 hours, Western blot
Method: In order to evaluate the CDK protein degradation activity of the compounds according to the present invention, the following experiment was conducted. MDA-MB-231 cells were seeded at 5×10^5 cells per well in a 6-well plate. The next day, the compounds were treated in each well to achieve final concentrations of 100 nM, 1 μM, and 10 μM. […] Cell lysates were quantified and separated by size using sodium dodecyl sulfate-polyacrylamide gel electrophoresis (SDS-PAGE). […]

Documented Enzyme degradation CDK9 (% remaining) @ 0.1 μM of O=C1CC[C@H](N2C(=O)c3ccc(NCC(=O)N4CCC(CCCN5CCN(c6ccc(Nc7ncnc8c7ncn8[C@H]7C[C@@H](NC(=O)Cc8ccccc8)C7)cc6)CC5)CC4)cc3C2=O)C(=O)N1 (racemic) : 0/0/0%

Documented Enzyme degradation CDK9 (% remaining) @ 0.1 μM of `Cc1cccc(C(=O)N[C@H]2C[C@@H](n3cnc4c(NC5CCN(CC6CCN(C(=O)CNc7ccc8c(c7)C(=O)N([C@H]7CCC(=O)NC7=O)C8=O)CC6)CC5)ncnc43)C2)n1` : 0/0/0%
